target: Glutamate NMDA receptor; test: N-methyl-D-aspartate glutamate receptor antagonistic activity was assessed from the ability to displace [3H]CPP29,30 from rat cortical membranes.
readout.label: pIC50
Keep in mind that pIC50 stands for -log10 of concentration in molar terms.

Find pIC50 (Glutamate NMDA receptor) for the entry O=C(O)C1CN(CCCP(=O)(O)O)CCN1 (stereo unspecified)
7.10

----------
target: Glutamate NMDA receptor; assay: NMDA receptor antagonistic activity was assessed in vitro by deteriming the ability to inhibit glutamate-induced accumulation of [Ca2+] in cultured rat cortical neurons.; type: functional
readout.label: pIC50
In simple prose, pIC50 is minus the logarithm base ten of a concentration in moles per litre.

Value lookup for pIC50; key = NC(CCCCCP(=O)(O)O)C(=O)O (stereo unspecified)
4.34
